# Test system: Phytophthora cinnamomi
# method: Amended agar assay
# Format: cell-based
# Design: key: D: no control detected at this concentration; C: up to 50% control; B: from 50 to 99% control; A: a control of greater than 99%, i.e. no detectable colony growth
# test-conditions: amended PDA agar, 20 ppm, % reduction in colony growth vs control plate, 18° C.
metric-name: % control Phytophthora cinnamomi 20 ppm

1) c1ccc(COc2nc3ccccc3n2-c2ccccn2)nc1    D
2) Cc1cccnc1-n1c(OCc2ccccn2)nc2ccccc21    D

###

# System: Pythium ultimum
# method: Amended agar assay
# Format: cell-based
# test-conditions: Globisporangium ultimum; amended PDA agar, 2 ppm, % reduction in colony growth vs control plate, 18° C.
metric-name: inhibition of growth at 2 ppm

1) Cn1nnnc1-n1c(OCc2cccc(NCC3CC3)n2)nc2ccccc21 [Example 47]    > 99%

Consider the record given below.
Query block: Can you look up the measured inhibition of growth at 2 ppm of CC(C)Nc1cccc(COc2nc3ccccc3n2-c2nnnn2C)n1 [Example 50] for me?
Result block: > 99%

###

# Tested on: Pythium ultimum
# method: Amended agar assay
# Type: cell-based
# test-conditions: Globisporangium ultimum; amended PDA agar, 2 ppm, % reduction in colony growth vs control plate, 18° C.
inhibition of growth at 2 ppm for assorted compounds

Worked cases, answers included:
1. CNc1cccc(COc2nc3ccccc3n2-c2nnnn2C)n1 [Example 48]    > 99%
2. Clc1cncnc1-n1c(OCc2ccccn2)nc2ccccc21 [Example 8]    50 to 99%
3. Cn1nnnc1-n1c(OCc2cccc(N)n2)nc2c(Cl)cccc21 [Example 59]    > 99%

Query block: Can you look up the measured inhibition of growth at 2 ppm of CCCNc1cccc(COc2nc3c(Cl)cccc3n2-c2nnnn2C)n1 [Example 88] for me?
Result block: > 99%

Query block: Ok, now COCc1cccc(COc2nc3c(Cl)cccc3n2-c2nnnn2C)n1 [Example 72]
Result block: < 50%

Query block: Ok, now Cn1nnnc1-n1c(OCc2ccccn2)nc2c(Cl)cccc21 [Example 30]
Result block: > 99%

###

# System: Pythium ultimum
# method: Amended agar assay
# Format: cell-based
# test-conditions: Globisporangium ultimum; amended PDA agar, 2 ppm, % reduction in colony growth vs control plate, 18° C.
metric-name: inhibition of growth at 2 ppm

1) Cn1nnnc1-n1c(OCc2nc3ccccc3n2C)nc2c(Cl)cccc21    > 99%
2) Cn1nnnc1-n1c(OCc2cccc(NCCc3ccccc3)n2)nc2c(Cl)cccc21    > 99%
3) Cn1nnnc1-n1c(OCc2cccc(NCc3ccccc3)n2)nc2ccccc21    > 99%
4) Cn1nnnc1-n1c(OCc2ccncn2)nc2ccccc21    > 99%
5) Cn1nnnc1-n1c(OCc2cccc(NCc3ccccn3)n2)nc2ccccc21    > 99%

Consider the record given below.
Query block: Can you look up the measured inhibition of growth at 2 ppm of `Cn1nnnc1-n1c(OCc2cccc(N)n2)nc2c(Br)cccc21` for me?
Result block: 50 to 99%

###

inhibition of growth at 2 ppm for assorted molecules
# Test system: Pythium ultimum
# method: Amended agar assay
# Assay type: cell-based
# test-conditions: Globisporangium ultimum; amended PDA agar, 2 ppm, % reduction in colony growth vs control plate, 18° C.

Worked cases, answers included:
1. Clc1cncnc1-n1c(OCc2nccs2)nc2ccccc21 [Example 23]    50 to 99%
2. CCC(C)Nc1cccc(COc2nc3ccccc3n2-c2nnnn2C)n1 (stereo not drawn) [Example 82]    > 99%

Query block: Request body: readout inhibition of growth at 2 ppm, system Pythium ultimum, query Cn1nnnc1-n1c(OCc2cccc(NCCC(F)(F)F)n2)nc2ccccc21 [Example 83] . Return the value.
Result block: > 99%

Query block: Ok, now Cn1nnnc1-n1c(OCc2cccc(NCCOc3ccccc3)n2)nc2c(Cl)cccc21 [Example 74]
Result block: > 99%

Query block: Ok, now COc1ccnc(COc2nc3ccccc3n2-c2nnnn2C)c1 [Example 4]
Result block: > 99%

Query block: Ok, now Cn1nnnc1-n1c(OCc2cccc(NCC3CCCC3)n2)nc2ccccc21 [Example 80]
Result block: > 99%
